assay: chemical genetic growth profiling, strain panel (AID 1159580);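 note: tested at 20 µM; growth read once vehicle control cultures reached saturation at 30 °C; 1 = growth at the plate median or of vehicle wells; lower values mean less growth of the strain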; conditions: S. cerevisiae deletion strains, growth OD, locus YMR277W, strain FCP1, hits give low values
Out of some 5,500 compounds screened, about 2,000 (36%) were called active. About 18% were inconclusive and are not listed. Some of the results follow.
// assign condition met if normalized growth falls strictly below 0.9, else condition not met (ties count as condition not met)

> print(dat)
                                    compound   class.assignment
 1            O=C1/C(=C/c2ccccn2)CCc2ccccc21  condition not met
 2  Cc1c(C)c(C)c(C(O)c2ccccc2)c(C)c1C (stereo unspecified)  condition not met
 3  Cc1cc(Oc2ccc(C(F)(F)F)cc2NS(C)(=O)=O)cc(C)c1Cl  condition not met
 4   O=C1Nc2ccccc2/C1=C/c1ccc(C(F)(F)F)cc1Cl  condition not met
 5         O/N=C(/c1ccc(Cl)cc1)c1cc2ccccc2o1  condition not met
 6  Oc1c(Cl)cc(Cl)cc1/C=N\NC(=S)Nc1cc(C(F)(F)F)cc(C(F)(F)F)c1      condition met
 7  COc1cc(Br)cc(C=Nc2ccc(Sc3ccccc3)nc2Sc2ccccc2)c1O  condition not met
 8    O=C1Nc2ccccc2/C1=C/c1ccc(Oc2ccccc2)nc1  condition not met
 9         COc1ccc(/C=C2/C(=O)Nc3ccccc32)cc1      condition met
10           O=C1Nc2ccccc2/C1=C\c1ccc(Cl)cc1  condition not met

###

assay: chemical genetic growth profiling, strain panel (AID 1159580);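 note: tested at 20 µM; growth read once vehicle control cultures reached saturation at 30 °C; 1 = growth at the plate median or of vehicle wells; lower values mean less growth of the strain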; conditions: S. cerevisiae deletion strains, growth OD, locus YDL134C, strain PPH21, hits give low values
The whole screen tested about 5,500 compounds, of which about 2,000 (36%) were called active. Roughly 18% stayed inconclusive and do not appear here. This is one part of the list.
recorded metric: normalized growth

> print(dat)
                                   molecule  numeric.result
1  CC12CCC3c4ccc(OC(=O)c5ccccc5)cc4CCC3C1CCC2O (stereo not drawn)               1
2  CC1(C)O[C@H]2CC(=O)OC[C@]23[C@H]2CC[C@@]4(C)[C@H](c5ccoc5)OC(=O)[C@H]5O[C@]54[C@]2(C)C(=O)C[C@@H]13            1.01
3    CC(=O)OC1CN2CCC1CC2 (stereo not drawn)           0.988
4  CC1(C)C2CC(=O)[C@]3(C)C(CC[C@@]4(C)[C@H](c5ccoc5)OC(=O)C5OC543)[C@@]2(C)[C@@H](O)C[C@H]1O (stereo partly drawn)            1.04
5  CC1(C)C(=O)C=C[C@@]2(C)C1C=C[C@]1(C)C2CC[C@@]2(C)[C@H](c3ccoc3)OC(=O)C3OC321 (stereo partly drawn)           0.948
6  CC(=O)Oc1ccc2c(c1C(C)C)CCC1C(C)(C)CCC[C@]21C (stereo partly drawn)            1.02
7  CC(=O)O[C@@H]1CC2C(C)(C)C(=O)C=C[C@]2(C)C2CC[C@@]3(C)[C@H](c4ccoc4)OC(=O)[C@H]4O[C@]43[C@@]21C (stereo partly drawn)           0.997
8  CC(C)c1c(O)ccc2c1CCC1[C@@](C)(CO)CCC[C@]21C (stereo partly drawn)           0.911

###

assay: chemical genetic growth profiling, strain panel (AID 1159580);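 note: tested at 20 µM; growth read once vehicle control cultures reached saturation at 30 °C; 1 = growth at the plate median or of vehicle wells; lower values mean less growth of the strain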; conditions: S. cerevisiae deletion strains, growth OD, locus YJR043C, strain POL32, hits give low values
Out of some 5,500 compounds screened, about 2,000 (36%) were called active. Not shown: some 18% with an inconclusive outcome. Some of the results follow.
recorded metric: normalized growth

> print(dat)
                                   compound  numeric.result
1     O=[N+]([O-])c1ccc(Oc2cccc3cccnc23)cc1            0.98
2  C[C@@H]1CC[C@@]2(OC1)OC1CC3C4CC=C5C[C@@H](O)CC[C@]5(C)C4CC[C@]3(C)C1[C@@H]2C (some centres undefined)            1.04
3  CC1CC[C@]2(NC1)O[C@H]1CC3C4CC[C@H]5C[C@@H](O)CC[C@]5(C)C4CC[C@]3(C)[C@H]1[C@@H]2C (some centres undefined)          0.0984
4      Cc1cc(Br)c(NC(=O)C(Cl)(Cl)Cl)c(Br)c1           0.927
5          COc1c(C(C)C)oc2cc3oc(=O)ccc3cc12           0.764
6  O=[N+]([O-])c1ccc(OCCCOc2ccc([N+](=O)[O-])cc2)cc1            1.01
7  CC1CC[C@@]2(OC1)O[C@H]1CC3C4CC[C@@H]5C[C@@H](O)CC[C@]5(C)C4CC[C@]3(C)[C@H]1[C@@H]2C (some centres undefined)            1.05
8  CCCCCCC(C)OC(=O)COc1ccc(Cl)cc1Cl (centres undefined)           0.969
9  COC(=O)C1OC(=O)C2OC23C1(C)CCC1C2(C)C(OC(C)=O)CC(OC(C)=O)C(C)(C)C2CC(=O)C13C (centres undefined)           0.984

###

test: chemical genetic growth profiling, strain panel (AID 1159580);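 note: tested at 20 µM; growth read once vehicle control cultures reached saturation at 30 °C; 1 = growth at the plate median or of vehicle wells; lower values mean less growth of the strain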; conditions: S. cerevisiae deletion strains, growth OD, locus YOR316C, strain cot1
In all, about 5,500 compounds went through this assay and about 2,000 (36%) were called active. Inconclusive results (about 18%) are left out. Cut-off read from the data, not from the text of the source: active = normalized growth mostly below about 0.91 (no sharp cut-off); inconclusive = no clear call, values can overlap the other calls; inactive = mostly above about 0.92. The list shows a part of the results.
Labels: 1 for active, -1 for inactive

compound	class assignment
C[C@@H]1CC[C@@]2(OC1)OC1CC3C4CC=C5C[C@@H](O)CC[C@]5(C)C4CC[C@]3(C)C1[C@@H]2C (some centres not stated)	-1
CC12CCC3c4ccc(OCc5ccccc5)cc4CCC3C1C[C@@H](O)[C@@H]2O (some centres not stated)	1
C[C@@H]1CC[C@@]2(OC1)O[C@H]1CC3C4CC[C@H]5C[C@@H](O)CC[C@]5(C)C4CC[C@]3(C)[C@H]1[C@@H]2C (some centres not stated)	-1
C[C@@H]([C@H](O)c1ccccc1)N(C)C	-1
Cc1cc(C2CCCCC2)n(O)c(=O)c1	1
CC1CC[C@@]2(OC1)O[C@H]1CC3C4CC[C@@H]5C[C@@H](O)CC[C@]5(C)C4CC[C@]3(C)[C@H]1[C@@H]2C (some centres not stated)	-1
CCC(=O)c1c(O)cc(O)cc1O	-1
CC1CCC2(OC1)OC1CC3C4CC[C@H]5C[C@@H](O)CC[C@]5(C)C4CC(=O)[C@]3(C)C1C2C (some centres not stated)	-1
COc1ccc2c(c1)CCC1C2CCC2(C)C1C[C@@H](O)C2O (some centres not stated)	-1
CC1(C)C(=O)C=C[C@@]2(C)C1CC(=O)[C@]1(C)C2CC[C@@]2(C)[C@H](c3ccoc3)OC(=O)[C@H]3O[C@]321 (some centres not stated)	-1
O=c1c(O)c(-c2ccc(O)cc2O)oc2cc(O)cc(O)c12	-1
COc1ccc(-c2cc(=O)c3c(O)cc(O[C@H]4O[C@H](CO[C@@H]5O[C@@H](C)[C@H](O)[C@@H](O)[C@H]5O)[C@@H](O)[C@H](O)[C@H]4O)cc3o2)cc1	-1
COc1ccc(Cl)cc1C(=O)NCCc1ccc(S(=O)(=O)NC(=O)NC2CCCCC2)cc1	-1
COc1ccc(-c2cc(=O)c3c(O)cc(O[C@@H]4O[C@H](CO[C@H]5O[C@H](C)[C@@H](O)[C@H](O)[C@@H]5O)[C@@H](O)[C@H](O)[C@H]4O)cc3o2)cc1O	-1
O=C(Cc1cccs1)NC1C(=O)N2C(C(=O)[O-])=C(C[n+]3ccccc3)CSC12 (configuration not stated)	-1
COc1cc(OC)c2c(=O)c(OC)c(-c3ccc(OC)c(OC)c3)oc2c1	-1
CO[C@@]1(NC(=O)C(C(=O)O)c2ccc(O)cc2)C(=O)N2C(C(=O)O)=C(CSc3nnnn3C)CO[C@@H]21 (some centres not stated)	-1
CCC/C=C1\OC(=O)C2=C1CCC=C2	-1
CC1O[C@@H](Oc2c(-c3ccc(O)c(O)c3)oc3cc(O)cc(O)c3c2=O)[C@H](O)[C@H](O)[C@H]1O (some centres not stated)	-1
CC1(C)C2CC(=O)[C@]3(C)C(CC[C@@]4(C)[C@H](c5ccoc5)OC(=O)C5OC543)[C@@]2(C)[C@@H](O)C[C@H]1O (some centres not stated)	-1
COc1ccccc1/C=C\C(=O)O	-1
COc1cc(O)c2c(=O)c(O)c(-c3ccc(O)c(O)c3)oc2c1	-1
NC(=O)c1ncn([C@@H]2O[C@H](CO)[C@@H](O)[C@H]2O)n1	-1
CCCCCCCCCCCC1=C(O)C(=O)C=C(O)C1=O	-1
CNC(C)C(O)c1ccccc1 (configuration not stated)	-1
C[C@@H]1O[C@@H](OC[C@H]2OC(Oc3c(-c4ccc(O)c(O)c4)oc4cc(O)cc(O)c4c3=O)[C@H](O)[C@@H](O)[C@@H]2O)[C@H](O)[C@H](O)[C@H]1O (some centres not stated)	-1
CCOC(=O)c1c(C)cc(OC)cc1O	-1
COc1cc(OC)c2c(=O)c(O)c(-c3ccc(OC)c(OC)c3)oc2c1	-1
COC(=O)C[C@H]1C(C)(C)C2(Cl)O[C@@]34CC2C(=O)[C@]1(C)C3CC[C@]1(C)C4=CC(=O)O[C@H]1c1ccoc1 (some centres not stated)	-1
CC1(C)C(=O)C=C[C@@]2(C)C1C[C@@H](O)[C@]1(C)C2CC[C@@]2(C)[C@H](c3ccoc3)OC(=O)[C@H]3O[C@]321 (some centres not stated)	-1
CC(=O)O[C@@H]1CC(=O)[C@@]2(C)C(CC(=O)[C@]3(C)C2CC[C@@]2(C)[C@H](c4ccoc4)OC(=O)C4OC423)C1(C)C (some centres not stated)	-1
CC(C)(C)NCC(O)c1cc(Cl)c(N)c(Cl)c1 (configuration not stated)	-1
O=c1c(O)c(-c2ccc(O)c(O)c2)oc2cc(O)cc(O)c12	-1
CCOC(=O)c1c(C)cc(O)cc1O	1
NC(=O)NCC(N)C(=O)O (configuration not stated)	-1
O=C1C=C2C(=CCOC2O)O1 (configuration not stated)	-1
C[C@@H]1O[C@@H](OC[C@H]2OC(Oc3c(-c4ccc(OCCO)c(OCCO)c4)oc4cc(OCCO)cc(O)c4c3=O)[C@H](O)[C@@H](O)[C@@H]2O)[C@H](O)[C@H](O)[C@H]1O (some centres not stated)	-1
